The following molecules are shown together with reported MIC values.
Test system: S. aureus N315 mutant Mt50DscA.1
Measurement protocol: Susceptibility (MIC) of Disciformycin A-resistant mutant
Assay type: cell-based
Measurement context: Staphylococcus aureus
Experimental endpoint: MIC

>>> test_value("C/C=C(/C)[C@H]1C/C=C(\\C)[C@@H](O[C@H]2O[C@H](CO)[C@@H](O)[C@@H]2O)[C@H](OC(=O)CC(C)C)C(=O)C[C@@H](OC)[C@H](C)C(=O)O1")
"> 64 µg/mL"
>>> test_value("C/C=C(/C)[C@H]1C/C=C(\\C)[C@@H](O[C@H]2O[C@H](CO)[C@@H](O)[C@@H]2O)[C@H](OC(=O)CC(C)C)C(=O)C/C=C(/C)C(=O)O1")
"> 64 µg/mL"
>>> test_value("C/C=C(/C)[C@H]1C/C=C(\\C)[C@@H](O[C@H]2O[C@H](CO)[C@@H](O)[C@@H]2O)[C@H](OC(=O)CC(C)C)C(=O)/C=C/[C@H](C)C(=O)O1")
"> 64 µg/mL"
